- assay: Cyclic voltammetry of the ferrocene/ferrocenium couple
- Assay type: physicochemical
- settings: vs Ag/AgCl, scan rate 100 mV/s, CH2Cl2, 0.1 M TBAP

{"compound": "Cc1ccc2c(c1)nc(-[c-]1cccc1CN(C)C)n2CCCNc1ccnc2cc(Cl)ccc12.[Fe+2].c1cc[cH-]c1 (stereo not shown)", "Anodic peak potential Epa (V)": 0.678}
{"compound": "Cc1ccc2c(c1)nc(-[c-]1cccc1CN(C)C)n2CCNCCNc1ccnc2cc(Cl)ccc12.[Fe+2].c1cc[cH-]c1 (stereo not shown)", "Anodic peak potential Epa (V)": 0.662}
{"compound": "CN(C)Cc1ccc[c-]1CNc1ccnc2cc(Cl)ccc12.[Fe+2].c1cc[cH-]c1 (stereo not shown) [FQ, ferroquine, reference compound]", "Anodic peak potential Epa (V)": 0.613}
{"compound": "[Fe+2].c1cc[cH-]c1.c1cc[cH-]c1 [Ferrocene, reference compound]", "Anodic peak potential Epa (V)": 0.543}
{"compound": "Cc1ccc2c(c1)nc(-[c-]1cccc1)n2CCNCCNc1ccnc2cc(Cl)ccc12.[Fe+2].c1cc[cH-]c1", "Anodic peak potential Epa (V)": 0.651}
{"compound": "Cc1ccc2c(c1)nc(-[c-]1cccc1)n2CCN(CCNc1ccnc2cc(Cl)ccc12)[c-]1cccc1.[Fe+2].[Fe+2].c1cc[cH-]c1.c1cc[cH-]c1", "Anodic peak potential Epa (V)": 0.632}
{"compound": "Cc1ccc2c(c1)nc(-[c-]1cccc1)n2CCCNc1ccnc2cc(Cl)ccc12.[Fe+2].c1cc[cH-]c1", "Anodic peak potential Epa (V)": 0.638}

====

- Tested on: PfNF54
- assay: In vitro ABS antiplasmodial activity, pLDH assay, drug-sensitive NF54
- Format: cell-based, Plasmodium falciparum
- settings: drug-sensitive NF54, ABS, pLDH, 48 h incubation; read-out: PfNF54 IC50 ± SEM
pIC50: −log10 of the molar value.
Recorded pIC50 by entry

{"compound": "Cc1ccc2c(c1)nc(-[c-]1cccc1)n2CCNCCNc1ccnc2cc(Cl)ccc12.[Fe+2].c1cc[cH-]c1", "assay.system": "PfNF54", "pIC50": 7.42}
{"compound": "Cc1ccc2c(c1)nc(-[c-]1cccc1)n2CCCNc1ccnc2cc(Cl)ccc12.[Fe+2].c1cc[cH-]c1", "assay.system": "PfNF54", "pIC50": 5.00}
{"compound": "Cc1ccc2c(c1)nc(-[c-]1cccc1)n2CCN(CCNc1ccnc2cc(Cl)ccc12)[c-]1cccc1.[Fe+2].[Fe+2].c1cc[cH-]c1.c1cc[cH-]c1", "assay.system": "PfNF54", "pIC50": 5.82}
{"compound": "Cc1ccc2c(c1)nc(-[c-]1cccc1CN(C)C)n2CCCNc1ccnc2cc(Cl)ccc12.[Fe+2].c1cc[cH-]c1 (centres unmarked)", "assay.system": "PfNF54", "pIC50": 7.60}
{"compound": "Cc1ccc2c(c1)nc(-[c-]1cccc1CN(C)C)n2CCNCCNc1ccnc2cc(Cl)ccc12.[Fe+2].c1cc[cH-]c1 (centres unmarked)", "assay.system": "PfNF54", "pIC50": 7.42}

====

- System: CHO cell line
- assay: Cytotoxicity, MTT assay
- settings: read-out: CC50 (CHO) ± SEM; MTT, 48 h, technical triplicate on a single occasion

{"compound": "Cc1ccc2c(c1)nc(-[c-]1cccc1CN(C)C)n2CCCNc1ccnc2cc(Cl)ccc12.[Fe+2].c1cc[cH-]c1 (stereo not shown)", "assay.system": "CHO cell line", "CC50": "6.1 µM"}

Measured values drawn from paper PMC12344774 for this set.
